target: mAb SH2; experiment: Competitive ELISA: inhibition of mAb SH2 binding to immobilized (DimLe^x)16-BSA conjugate 1; design: species or system mouse; details: Table 2; DimLe^x-BSA conjugate 1 immobilized (5 μg/mL); SH2 ascites 1:500; read-out: SH2 IC50
Give pIC50 for every item shown.
The value called pIC50 is obtained by taking minus log10 of the concentration in mol/L.

Find the recorded pIC50 belonging to CO[C@@H]1O[C@H](CO)[C@@H](O[C@@H]2O[C@H](CO)[C@H](O)[C@H](O)[C@H]2O)[C@H](O[C@@H]2O[C@@H](C)[C@H](O)[C@@H](O)[C@H]2O)[C@H]1NC(C)=O [compound 17, RhaLe^x] and report it.
3.08

Now try CO[C@@H]1O[C@H](CO)[C@@H](O[C@@H]2O[C@H](CO)[C@H](Cl)[C@H](O)[C@H]2O)[C@H](O[C@@H]2O[C@@H](C)[C@@H](O)[C@@H](O)[C@@H]2O)[C@H]1O [compound 21, 4″-ClLe^x] .
4.72

Further, for CO[C@@H]1O[C@H](CO)[C@@H](O[C@@H]2O[C@H](CO)[C@H](OC)[C@H](O)[C@H]2O)[C@H](O[C@@H]2O[C@@H](C)[C@@H](O)[C@@H](O)[C@@H]2O)[C@H]1O [compound 19] ?
3.83

* * *

biological target: mAb SH2; assay: Competitive ELISA: inhibition of mAb SH2 binding to immobilized (DimLe^x)16-BSA conjugate 1; set-up: species or system mouse; details: Table 2; DimLe^x-BSA conjugate 1 immobilized (5 μg/mL); SH2 ascites 1:500; read-out: SH2 IC50
Would you kindly list pIC50 for each of these compounds?
pIC50 here is simply -log10 of the concentration when that concentration is written in mol/L.

If you can, please state the reported pIC50 value of `CO[C@@H]1O[C@H](CO)[C@@H](O[C@@H]2O[C@H](CO)C[C@H](O)[C@H]2O)[C@H](O[C@@H]2O[C@@H](C)[C@@H](O)[C@@H](O)[C@@H]2O)[C@H]1O` .
4.13

Same question, `CO[C@@H]1O[C@H](CO)[C@@H](O[C@@H]2O[C@H](CO)[C@H](F)[C@H](O)[C@H]2O)[C@H](O[C@@H]2O[C@@H](C)[C@@H](O)[C@@H](O)[C@@H]2O)[C@H]1O` this time
4.77

* * *

test system: mAb SH2; experiment: Competitive ELISA: inhibition of mAb SH2 binding to immobilized (DimLe^x)16-BSA conjugate 1; set-up: species or system mouse; conditions: Table 2; reference inhibitor Le^x 7; T = 296 K; --- = No inhibition
property label: SH2 ∆(∆G) (kcal/mol)
Field: numeric (kcal/mol). Do not append units.

Returns the measured SH2 ∆(∆G) for the input compound. Input: CO[C@@H]1O[C@H](CO)[C@@H](O[C@@H]2O[C@H](CO)[C@H](O)[C@H](O)[C@H]2O)[C@H](O[C@@H]2O[C@@H](C)[C@@H](O)[C@@H](O)[C@@H]2O)[C@H]1NC(C)=O [compound 7, Le^x methyl glycoside]
0

What do we get for `CO[C@@H]1O[C@H](CO)[C@@H](O[C@@H]2O[C@H](CO)[C@H](F)[C@H](O)[C@H]2O)[C@H](O[C@@H]2O[C@@H](C)[C@@H](O)[C@@H](O)[C@@H]2O)[C@H]1O` ?
-0.6

Entry `CO[C@@H]1O[C@H](CO)[C@@H](O[C@@H]2O[C@H](CO)[C@H](Cl)[C@H](O)[C@H]2O)[C@H](O[C@@H]2O[C@@H](C)[C@@H](O)[C@@H](O)[C@@H]2O)[C@H]1O` please
-0.5
